molecular target: Bromodomain adjacent to zinc finger domain protein 2B (Homo sapiens) (UniProt Q9UIF8); assay: qHTS Assay for Inhibitors of BAZ2B; conditions: AlphaScreen BAZ2B-H3K14Ac peptide displacement; series mostly up to 114 µM; note: nearly all actives have a fitted effect of over 60% in size
Sequence (Q9UIF8 whole entry, looked up, the tested form may be a part): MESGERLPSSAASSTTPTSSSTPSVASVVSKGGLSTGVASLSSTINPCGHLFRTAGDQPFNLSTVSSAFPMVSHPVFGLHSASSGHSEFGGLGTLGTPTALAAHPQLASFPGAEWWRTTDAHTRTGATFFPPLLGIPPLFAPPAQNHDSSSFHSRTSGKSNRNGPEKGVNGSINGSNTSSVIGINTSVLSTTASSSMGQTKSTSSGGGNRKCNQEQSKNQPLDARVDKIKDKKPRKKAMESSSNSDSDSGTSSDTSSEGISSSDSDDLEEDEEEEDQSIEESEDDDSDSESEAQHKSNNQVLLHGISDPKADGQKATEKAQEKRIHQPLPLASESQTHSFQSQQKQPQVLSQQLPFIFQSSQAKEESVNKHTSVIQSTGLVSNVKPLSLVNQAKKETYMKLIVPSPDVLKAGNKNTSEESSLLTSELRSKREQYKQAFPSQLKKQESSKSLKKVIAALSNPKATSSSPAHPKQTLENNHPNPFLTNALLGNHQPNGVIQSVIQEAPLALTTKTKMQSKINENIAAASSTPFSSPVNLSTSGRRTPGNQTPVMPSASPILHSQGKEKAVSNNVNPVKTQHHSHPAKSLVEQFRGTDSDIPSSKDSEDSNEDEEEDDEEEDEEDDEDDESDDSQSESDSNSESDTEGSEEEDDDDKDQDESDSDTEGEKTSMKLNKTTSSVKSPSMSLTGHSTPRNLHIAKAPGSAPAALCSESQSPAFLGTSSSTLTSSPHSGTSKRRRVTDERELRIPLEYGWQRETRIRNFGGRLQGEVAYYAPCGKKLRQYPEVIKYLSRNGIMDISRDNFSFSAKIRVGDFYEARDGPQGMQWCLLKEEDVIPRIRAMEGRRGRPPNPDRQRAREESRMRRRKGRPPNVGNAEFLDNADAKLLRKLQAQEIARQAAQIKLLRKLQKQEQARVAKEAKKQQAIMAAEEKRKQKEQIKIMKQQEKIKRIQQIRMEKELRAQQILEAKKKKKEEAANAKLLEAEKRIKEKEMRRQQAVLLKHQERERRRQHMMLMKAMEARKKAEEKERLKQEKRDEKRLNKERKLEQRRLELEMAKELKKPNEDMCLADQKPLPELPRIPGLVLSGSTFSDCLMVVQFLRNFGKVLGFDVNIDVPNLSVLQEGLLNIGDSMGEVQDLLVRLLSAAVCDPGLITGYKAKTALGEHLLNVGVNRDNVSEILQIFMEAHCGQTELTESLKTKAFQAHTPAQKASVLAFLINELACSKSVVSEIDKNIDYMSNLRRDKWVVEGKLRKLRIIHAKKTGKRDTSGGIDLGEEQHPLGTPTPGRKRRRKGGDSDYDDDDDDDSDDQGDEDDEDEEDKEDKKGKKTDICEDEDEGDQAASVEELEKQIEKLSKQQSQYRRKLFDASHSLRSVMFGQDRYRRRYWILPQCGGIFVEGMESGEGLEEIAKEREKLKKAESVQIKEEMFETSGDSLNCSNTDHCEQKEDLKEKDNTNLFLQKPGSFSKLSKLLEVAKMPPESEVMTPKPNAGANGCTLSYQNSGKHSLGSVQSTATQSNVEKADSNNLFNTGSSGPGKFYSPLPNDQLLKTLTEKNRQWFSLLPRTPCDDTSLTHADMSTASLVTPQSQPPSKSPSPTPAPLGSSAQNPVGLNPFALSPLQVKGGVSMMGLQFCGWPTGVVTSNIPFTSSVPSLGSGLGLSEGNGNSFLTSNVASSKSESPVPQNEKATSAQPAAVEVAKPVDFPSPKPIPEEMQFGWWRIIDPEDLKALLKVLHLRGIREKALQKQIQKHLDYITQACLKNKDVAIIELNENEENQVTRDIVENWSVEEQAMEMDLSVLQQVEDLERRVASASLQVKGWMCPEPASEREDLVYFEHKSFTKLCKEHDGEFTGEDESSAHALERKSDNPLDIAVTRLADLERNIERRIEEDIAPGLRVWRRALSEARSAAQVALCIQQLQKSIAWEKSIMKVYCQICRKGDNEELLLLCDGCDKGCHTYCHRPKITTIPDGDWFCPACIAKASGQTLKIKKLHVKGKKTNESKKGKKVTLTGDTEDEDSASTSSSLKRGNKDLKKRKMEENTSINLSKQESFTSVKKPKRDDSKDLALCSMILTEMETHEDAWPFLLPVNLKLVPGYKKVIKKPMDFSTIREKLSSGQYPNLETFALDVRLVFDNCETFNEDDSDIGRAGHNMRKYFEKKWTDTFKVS
In all, about 360,000 compounds went through this assay and about 16,000 (4.4%) were called active. Another 9% or so got no clear call; they are omitted. Calls come from the whole dose curve; as a rule, active = well fitted inhibition curve with a large enough effect; inconclusive = small, poorly fitted or top-dose-only effect; inactive = no such curve, though single readings can be large or run the other way. Shown is part of a subset that was picked to be rich in actives.
Outcomes: active, inactive

- compound: "Cc1cccc(CC(=O)Nc2cccc(-c3cn4cccnc4n3)c2)c1"
  system under test: "Bromodomain adjacent to zinc finger domain protein 2B (Homo sapiens) (UniProt Q9UIF8)"
  class assignment: "inactive"
- compound: "Cc1nc2nc(NCc3cccc(Br)c3)[nH]n2c(=O)c1Cc1ccccc1"
  system under test: "Bromodomain adjacent to zinc finger domain protein 2B (Homo sapiens) (UniProt Q9UIF8)"
  class assignment: "inactive"
- compound: "Cc1ccc(Cl)cc1NC(=O)CCC(=O)N1CC(C)Sc2ccccc21 (centres undefined)"
  system under test: "Bromodomain adjacent to zinc finger domain protein 2B (Homo sapiens) (UniProt Q9UIF8)"
  class assignment: "inactive"
- compound: "O=C(c1ccccc1F)N1CCC(c2nc3c(nnn3Cc3cccc(F)c3)c(=O)[nH]2)CC1"
  system under test: "Bromodomain adjacent to zinc finger domain protein 2B (Homo sapiens) (UniProt Q9UIF8)"
  class assignment: "inactive"
- compound: "Cc1c(CNC(C)c2ccccc2)c(C(=O)O)c(C)n1Cc1c(F)cccc1Cl (centres undefined)"
  system under test: "Bromodomain adjacent to zinc finger domain protein 2B (Homo sapiens) (UniProt Q9UIF8)"
  class assignment: "inactive"
- compound: "Cc1onc(-c2ccc(F)cc2F)c1C(=O)Nc1cccc(C(F)(F)F)c1"
  system under test: "Bromodomain adjacent to zinc finger domain protein 2B (Homo sapiens) (UniProt Q9UIF8)"
  class assignment: "inactive"
- compound: "CCOC(=O)N1CCN(CC(=O)Nc2ccc(F)cc2)CC1"
  system under test: "Bromodomain adjacent to zinc finger domain protein 2B (Homo sapiens) (UniProt Q9UIF8)"
  class assignment: "inactive"
- compound: "CCN(CC)c1ccc(NC(=O)CN2CCN(CC(=O)Nc3ccc(Cl)cc3)CC2)cc1"
  system under test: "Bromodomain adjacent to zinc finger domain protein 2B (Homo sapiens) (UniProt Q9UIF8)"
  class assignment: "active"
- compound: "CCOc1ccc(CNC(=O)C2CCN(c3nnc(-n4cccc4CNc4ccc(C)cc4)s3)CC2)cc1OC"
  system under test: "Bromodomain adjacent to zinc finger domain protein 2B (Homo sapiens) (UniProt Q9UIF8)"
  class assignment: "inactive"
- compound: "CCOc1cc(/C=N/NC(=O)CN2CCCCC2)ccc1O"
  system under test: "Bromodomain adjacent to zinc finger domain protein 2B (Homo sapiens) (UniProt Q9UIF8)"
  class assignment: "active"
- compound: "O=C(O)c1ccc2c(c1)N(Cc1ccc(F)cc1)C(=O)c1ccccc1S2=O (centres undefined)"
  system under test: "Bromodomain adjacent to zinc finger domain protein 2B (Homo sapiens) (UniProt Q9UIF8)"
  class assignment: "inactive"
- compound: "Cc1nn(CC(=O)N/N=C/c2ccc(F)cc2)c(C)c1[N+](=O)[O-]"
  system under test: "Bromodomain adjacent to zinc finger domain protein 2B (Homo sapiens) (UniProt Q9UIF8)"
  class assignment: "inactive"
- compound: "COc1cccc(NC(=O)C2C(c3ccccc3)C2(Cl)Cl)c1 (centres undefined)"
  system under test: "Bromodomain adjacent to zinc finger domain protein 2B (Homo sapiens) (UniProt Q9UIF8)"
  class assignment: "inactive"
- compound: "CC1=CC(C)(C)N(C(=O)CSc2nnc(-c3ccccc3)o2)c2ccc(C)cc21"
  system under test: "Bromodomain adjacent to zinc finger domain protein 2B (Homo sapiens) (UniProt Q9UIF8)"
  class assignment: "inactive"

* * *

biological target: Bromodomain adjacent to zinc finger domain protein 2B (Homo sapiens); assay: qHTS Assay for Inhibitors of BAZ2B; conditions: AlphaScreen BAZ2B-H3K14Ac peptide displacement; series mostly up to 114 µM; note: nearly all actives have a fitted effect of over 60% in size
Hit rate of the full screen: of about 360,000 compounds, about 16,000 (4.4%) were called active. Another 9% or so got no clear call; they are omitted. Calls follow the shape of the dose curve; as a rule, active = well fitted inhibition curve with a large enough effect; inconclusive = small, poorly fitted or top-dose-only effect; inactive = no such curve, though single readings can be large or run the other way. The sample as a whole holds a higher share of actives than the screen did.
Outcomes: active, inactive

- molecule: "COc1ccccc1OCCCn1c(-c2ccc(Cl)cc2)nc2ccccc2c1=O"
  class assignment: "inactive"
- molecule: "CCN(C(=O)c1sc2cc(OC)ccc2c1Cl)c1ccccc1"
  class assignment: "inactive"
- molecule: "Cc1ccccc1NC(=O)NCc1ccco1"
  class assignment: "inactive"
- molecule: "O=C(NCCS(=O)(=O)N1CCN(c2ccc(F)cc2)CC1)c1ccccc1Br"
  class assignment: "inactive"
- molecule: "CCc1nnc(SCc2nc(-c3cccc(C)c3)oc2C)c2cc3sc(C)cc3n12"
  class assignment: "inactive"
- molecule: "Cc1nc2ccn(Cc3cccs3)c(=O)c2cc1C(=O)NCc1ccc(Cl)cc1"
  class assignment: "inactive"
- molecule: "Cc1cccc(C(=O)Nc2nnc(S(=O)(=O)N3CCCCCC3)s2)c1"
  class assignment: "inactive"
- molecule: "N#Cc1nc(COc2ccc(Cl)cc2)oc1N1CCCC1"
  class assignment: "active"
- molecule: "CCOc1ccccc1CNC(=O)Nc1cn(CC(C)C)c(=O)c2ccccc12"
  class assignment: "inactive"
- molecule: "CCC(C)Nc1oc(-c2ccc(COc3ccc(Cl)cc3)o2)nc1C#N (stereo not given)"
  class assignment: "inactive"

* * *

molecular target: Bromodomain adjacent to zinc finger domain protein 2B (Homo sapiens); assay: qHTS Assay for Inhibitors of BAZ2B; settings: AlphaScreen BAZ2B-H3K14Ac peptide displacement; series mostly up to 114 µM; note: nearly all actives have a fitted effect of over 60% in size
About 16,000 (4.4%) of roughly 360,000 compounds were called active. Roughly 9% stayed inconclusive and do not appear here. Calls come from the whole dose curve; as a rule, active = well fitted inhibition curve with a large enough effect; inconclusive = small, poorly fitted or top-dose-only effect; inactive = no such curve, though single readings can be large or run the other way. The entries come from a sample that favours actives as a whole.
Outcomes: active, inactive

- compound: "Cc1c(C(=O)Nc2cccc(Cl)c2)oc2ccc(S(=O)(=O)N3CCOCC3)cc12"
  class assignment: "inactive"
- compound: "Oc1c(C=Nc2cccc3nsnc23)ccc2ccccc12"
  class assignment: "active"
- compound: "O=Cc1c(Nc2ccccc2Cl)nc2ccccn2c1=O"
  class assignment: "active"
- compound: "COc1cccc(/C=N/Nc2ccc(Cl)nn2)c1"
  class assignment: "inactive"
- compound: "CCOc1cc(CNn2c(C)nnc2SCC(=O)NC(C)(C)C)ccc1OCC(=O)NC(C)(C)C"
  class assignment: "inactive"
- compound: "CCOc1cc(C)c(S(=O)(=O)NCc2ccccn2)cc1C"
  class assignment: "inactive"
- compound: "Cc1ccccc1Nc1nc(N)nc(CSc2ccccc2)n1"
  class assignment: "inactive"
- compound: "CCOc1cc(CNCc2ccccn2)ccc1OCC(=O)NC(C)(C)C"
  class assignment: "active"
- compound: "CCOc1ccc(C(=O)c2cn(Cc3ccc(F)cc3)c3ccc(F)cc3c2=O)cc1"
  class assignment: "inactive"
- compound: "COC(=O)CC1Oc2ccccc2-n2cc(-c3ccccc3)nc21 (stereo not given)"
  class assignment: "inactive"

* * *

target: Bromodomain adjacent to zinc finger domain protein 2B (Homo sapiens) (UniProt Q9UIF8); test: qHTS Assay for Inhibitors of BAZ2B; conditions: AlphaScreen BAZ2B-H3K14Ac peptide displacement; series mostly up to 114 µM; note: nearly all actives have a fitted effect of over 60% in size; note: potency is the fitted concentration of half-maximal effect
Hit rate of the full screen: of about 360,000 compounds, about 16,000 (4.4%) were called active. Another 9% or so got no clear call; they are omitted. For the sample, actives were picked, then their nearest neighbours and some compounds at random.

- compound: "O=C(CN1CCCCCC1)Nc1c(Cl)cc(Cl)cc1Cl"
  Potency: "inactive"
- compound: "O=C1c2ccccc2NC(c2ccc(-c3cccc(Cl)c3)o2)N1O (stereo not given)"
  Potency: "inactive"
- compound: "O=c1[nH]n2c(=O)c3c([nH]c2c1N=Nc1ccccc1)CCC3"
  Potency: "39.8 µM (active)"
- compound: "COc1cccc(NC(=O)C2CCN(c3cc(C)nc4c(-c5ccc(Cl)cc5)c(C)nn34)CC2)c1"
  Potency: "inactive"
- compound: "COc1ccccc1CNC(=O)c1ccc(-n2c(C)cc3c2CCCC3)cc1"
  Potency: "inactive"

* * *

molecular target: Bromodomain adjacent to zinc finger domain protein 2B (Homo sapiens); experiment: qHTS Assay for Inhibitors of BAZ2B; conditions: AlphaScreen BAZ2B-H3K14Ac peptide displacement; series mostly up to 114 µM; note: nearly all actives have a fitted effect of over 60% in size
About 16,000 (4.4%) of roughly 360,000 compounds were called active. Roughly 9% stayed inconclusive and do not appear here. The full list was thinned out, with actives kept by preference.

- molecule: "COc1cccc(N2C(=O)C3CCCN3C2c2ccc(F)cc2)c1 (stereo not drawn)"
  outcome: "inactive"
- molecule: "CCOc1ccccc1NC(=O)CN1CCN(S(=O)(=O)c2ccc(Br)cc2)CC1"
  outcome: "inactive"
- molecule: "CC1=C(c2ccc(C)c(C)c2)S(=O)(=O)NC1=NCc1ccccc1Cl"
  outcome: "inactive"

* * *

Target: Bromodomain adjacent to zinc finger domain protein 2B (Homo sapiens)
Assay: qHTS Assay for Inhibitors of BAZ2B; note: nearly all actives have a fitted effect of over 60% in size
Details: AlphaScreen BAZ2B-H3K14Ac peptide displacement; series mostly up to 114 µM
Source text: BAZ2B (bromodomain adjacent to zinc finger domain, 2B) belongs to a family of ubiquitously expressed bromodomain containing proteins, which biological function has not yet been elucidated. […] Yasgar, et al. Compound Management for Quantitative High-Throughput Screening. […] Inglese, et al. Quantitative high-throughput screening: a titration-based approach that efficiently identifies biological activities in large chemical libraries. […]
Screen size: about 360,000 compounds; about 16,000 (4.4%) were called active. Inconclusive results (about 9%) are left out. Calls come from the whole dose curve; as a rule, active = well fitted inhibition curve with a large enough effect; inconclusive = small, poorly fitted or top-dose-only effect; inactive = no such curve, though single readings can be large or run the other way. Shown is part of a subset that was picked to be rich in actives.
Outcomes: True = active, False = inactive

- molecule: "COc1ccc(NC(=O)c2ccc3oc(=O)c(S(=O)(=O)c4ccc(F)cc4)cc3c2)c(OC)c1"
  class assignment: "False"
- molecule: "CCC(C(=O)Nc1cccc(Cl)c1C)n1nc(-c2ccc(C)cc2)ccc1=O (configuration not stated)"
  class assignment: "False"
- molecule: "CC(O)c1ccc(OCCN(C)c2ccccn2)cc1 (configuration not stated)"
  class assignment: "False"
- molecule: "CC(C)(c1ccccc1)c1ccc(OCCN)cc1"
  class assignment: "False"
- molecule: "O=C(Nc1nnc(C2=COCCO2)o1)c1ccc([N+](=O)[O-])s1"
  class assignment: "True"
- molecule: "Cc1ccc(C(=O)Nc2nnc(C3=COCCO3)o2)cc1C"
  class assignment: "True"
- molecule: "COc1cc2c3c(c1)/C(=C1/SC(=S)NC1=O)C(=O)N3C(C)(C)C=C2C"
  class assignment: "True"
- molecule: "Cc1cc(C)cc(N)c1"
  class assignment: "False"
- molecule: "O=C(/C=C/c1ccccc1)N1CCN(Cc2cc(=O)n3nc(-c4ccccc4F)sc3n2)CC1"
  class assignment: "False"
- molecule: "CCOc1cccc(C(=O)Nc2nnc(S(=O)(=O)N(C)c3ccc(C)cc3)s2)c1"
  class assignment: "False"
- molecule: "COc1cc(/C=C/C(=O)N2CCc3ccccc3C2)cc(OC)c1OC"
  class assignment: "False"
- molecule: "Cc1c(-c2cccc(NC(=O)C(C)(C)C)c2)nc2ncccn12"
  class assignment: "False"
